Could you please report measured pEC50 for the items listed next?
molecular target: human αvβ8 integrin on U251 cells (human, UniProt P06756 31-1048); experiment: flow cytometry, Fab binding to fixed U251 cells (MFI APC-A); EC50 unit inferred, axis Log10 [Ab] (nM)
Answer as the number alone; pEC50 is minus log10 of concentration in mol/L.

For record ADWA11 2.4 (F64V) Fab (Fab, V domains shown) VH: EVQLVESGGGLVQPGGSLRLSCAASGFNIKDYYMNWVRQAPGKGLEWVGWIDPDQGNTIYEPKVQGRFTISADTSKNSAYLQMNSLRAEDTAVYYCARRLLMDYWGQGTLVTVSS VL: DIQMTQSPSSLSASVGDRVTITCRSTKSLSHFNGNTYLFWYQQKPGKAPKRLIYYMSSLASGVPSRFSGSGSGTDFTLTISSLQPEDFATYYCQQSLEYPFTFGGGTKVEIK the listed pEC50 is 9.68

Field pEC50 (entry ADWA11 2.1 (F64V) Fab (Fab, V domains shown) VH: EVQLVESGGGLVQPGGSLRLSCAASGFNIKDYYMNWVRQAPGKGLEWVGWIDPDQGNTIYEPKVQGRFTISADTSKNSAYLQMNSLRAEDTAVYYCARRLLMDYWGQGTLVTVSS VL: DIQMTQSPSSLSASVGDRVTITCRSTKSLSHFNGNTYLFWYQQKPGKAPKRLIYYMSNLASGVPSRFSGSGSGTDFTLTISSLQPEDFATYYCQQSLEYPFTFGGGTKVEIK ) reads 9.65

Record summary for ADWA11 2.3 Fab (Fab, V domains shown) VH: EVQLVESGGGLVQPGGSLRLSCAASGFNIKDYYMNWVRQAPGKGLEWVGWIDPDQGNTIYEPKFQGRFTISADTSKNSAYLQMNSLRAEDTAVYYCARRLLMDYWGQGTLVTVSS VL: DIQMTQSPSSLSASVGDRVTITCRSTKSLSHFNGNTYLFWYQQKPGKAPKRLIYYASNLASGVPSRFSGSGSGTDFTLTISSLQPEDFATYYCQQSLEYPFTFGGGTKVEIK : reported pEC50 = 9.35
